FYI, the data here is from paper PMC10517971.

- Tested System: Nav1.5 (Peak) (Homo sapiens, UniProt Q14524)
- Sequence (Q14524 whole entry): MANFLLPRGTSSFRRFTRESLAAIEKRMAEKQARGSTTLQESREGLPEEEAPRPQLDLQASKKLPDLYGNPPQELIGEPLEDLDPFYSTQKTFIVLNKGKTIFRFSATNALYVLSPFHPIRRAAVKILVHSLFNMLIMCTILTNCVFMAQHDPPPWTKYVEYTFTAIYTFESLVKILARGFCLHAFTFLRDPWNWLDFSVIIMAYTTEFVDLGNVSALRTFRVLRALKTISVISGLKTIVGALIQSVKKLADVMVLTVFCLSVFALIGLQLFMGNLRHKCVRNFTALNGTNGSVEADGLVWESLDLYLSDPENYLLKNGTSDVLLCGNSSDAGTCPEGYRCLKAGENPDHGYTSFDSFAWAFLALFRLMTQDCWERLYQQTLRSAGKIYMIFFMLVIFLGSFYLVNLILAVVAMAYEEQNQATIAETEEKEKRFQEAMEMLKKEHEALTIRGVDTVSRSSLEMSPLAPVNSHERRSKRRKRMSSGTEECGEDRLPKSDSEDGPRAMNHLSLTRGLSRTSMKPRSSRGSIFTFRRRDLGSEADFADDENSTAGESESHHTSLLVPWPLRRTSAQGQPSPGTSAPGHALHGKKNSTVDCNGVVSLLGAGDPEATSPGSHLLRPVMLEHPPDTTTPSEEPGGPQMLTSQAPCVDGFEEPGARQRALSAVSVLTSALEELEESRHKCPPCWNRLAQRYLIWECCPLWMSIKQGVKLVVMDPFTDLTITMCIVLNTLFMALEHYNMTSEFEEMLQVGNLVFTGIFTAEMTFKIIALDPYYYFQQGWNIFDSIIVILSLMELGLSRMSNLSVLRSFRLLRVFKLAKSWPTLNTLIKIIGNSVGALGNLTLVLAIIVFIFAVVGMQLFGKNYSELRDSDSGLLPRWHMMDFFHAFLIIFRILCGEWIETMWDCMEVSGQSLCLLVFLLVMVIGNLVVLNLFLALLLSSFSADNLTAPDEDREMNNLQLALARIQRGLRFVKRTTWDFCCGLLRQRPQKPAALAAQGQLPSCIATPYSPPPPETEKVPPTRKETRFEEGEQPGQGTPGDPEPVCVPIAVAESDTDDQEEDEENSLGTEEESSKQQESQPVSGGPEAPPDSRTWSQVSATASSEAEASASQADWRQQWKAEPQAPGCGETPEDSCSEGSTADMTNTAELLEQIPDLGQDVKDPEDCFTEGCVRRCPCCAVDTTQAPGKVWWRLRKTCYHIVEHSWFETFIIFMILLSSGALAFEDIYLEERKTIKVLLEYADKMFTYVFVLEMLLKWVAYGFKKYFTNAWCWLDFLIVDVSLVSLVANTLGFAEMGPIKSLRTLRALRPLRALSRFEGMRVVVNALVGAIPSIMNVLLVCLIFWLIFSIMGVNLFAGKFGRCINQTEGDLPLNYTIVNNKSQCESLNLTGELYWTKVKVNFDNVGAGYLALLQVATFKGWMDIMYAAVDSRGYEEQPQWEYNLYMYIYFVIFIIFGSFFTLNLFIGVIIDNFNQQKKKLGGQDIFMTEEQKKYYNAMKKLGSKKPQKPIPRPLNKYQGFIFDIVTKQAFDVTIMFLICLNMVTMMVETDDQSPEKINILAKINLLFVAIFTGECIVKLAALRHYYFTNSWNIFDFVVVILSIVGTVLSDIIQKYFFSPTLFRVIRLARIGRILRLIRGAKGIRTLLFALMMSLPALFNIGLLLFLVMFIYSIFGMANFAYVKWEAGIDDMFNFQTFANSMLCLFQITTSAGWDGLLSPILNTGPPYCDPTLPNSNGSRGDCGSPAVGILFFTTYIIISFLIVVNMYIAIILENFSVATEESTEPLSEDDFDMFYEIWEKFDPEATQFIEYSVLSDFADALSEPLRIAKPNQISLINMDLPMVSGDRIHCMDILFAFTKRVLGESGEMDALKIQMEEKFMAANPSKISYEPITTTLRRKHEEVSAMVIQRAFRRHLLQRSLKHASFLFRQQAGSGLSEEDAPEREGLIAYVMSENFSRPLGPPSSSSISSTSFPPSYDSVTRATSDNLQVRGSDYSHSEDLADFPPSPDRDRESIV
- Assay Info: Nav1.5 (peak current) ion channel profiling, Qube384 automated patch clamp (standard and extended protocol)
- Assay type: cell-based
Measured Endpoint: IC50

The recorded IC50 for CCOc1cc(C)nc(N(CCOC)S(=O)(=O)c2ccc(NCc3c(F)cncc3F)nc2OC)n1 [Compound 1] is > 100 µM

* * *

- Tested System: Nav1.5 (Peak) (Homo sapiens, UniProt Q14524)
- Assay Info: Nav1.5 (peak current) ion channel profiling, Qube384 automated patch clamp (standard and extended protocol)
- Assay type: cell-based
- Test Conditions: read-out: Ion Channel Extended Protocol IC50 (nM), Period 1st; Nav1.5 (Peak), extended protocol, 1st period
- Protocol: 105 hERG, Nav1.5 and Cav1.2 Ion Channel Profiling 106 Ionic curr ents wer e evalu ated in the whole-cell con figuration using the Qube384 automated planar 107 patch clamp platform (Sophion Bioscience A/S, Ballerup, Denmark). […] 116 HEPES, 2 Na2ATP, pH 7.2, 305 mOsM. […] 142 Patch clamp data were analyzed using Assay Software 6.4.72 (Sophion Bioscience A/S, Ballerup, 143 Denmark). Current amplitudes were determined by averaging the last 4 currents under each test […]
Measured Endpoint: IC50

The recorded IC50 for CCOc1cc(C)nc(N(CCOC)S(=O)(=O)c2ccc(NCc3c(F)cncc3F)nc2OC)n1 [Compound 1] is > 100000 nM

* * *

- Tested System: Human PDE3A1 (Homo sapiens)
- Assay Info: Phosphodiesterase Assay (SPA)
- Assay type: biochemical
Measured Endpoint: pIC50
By convention, pIC50 is the negative base-10 log of a molar concentration.

The recorded pIC50 for `CCOc1cc(C)nc(N(CCOC)S(=O)(=O)c2ccc(NCc3c(F)cncc3F)nc2OC)n1` is 4.74

* * *

- Tested System: Human PDE11A4 (Homo sapiens, UniProt Q9HCR9)
- Sequence (Q9HCR9 whole entry): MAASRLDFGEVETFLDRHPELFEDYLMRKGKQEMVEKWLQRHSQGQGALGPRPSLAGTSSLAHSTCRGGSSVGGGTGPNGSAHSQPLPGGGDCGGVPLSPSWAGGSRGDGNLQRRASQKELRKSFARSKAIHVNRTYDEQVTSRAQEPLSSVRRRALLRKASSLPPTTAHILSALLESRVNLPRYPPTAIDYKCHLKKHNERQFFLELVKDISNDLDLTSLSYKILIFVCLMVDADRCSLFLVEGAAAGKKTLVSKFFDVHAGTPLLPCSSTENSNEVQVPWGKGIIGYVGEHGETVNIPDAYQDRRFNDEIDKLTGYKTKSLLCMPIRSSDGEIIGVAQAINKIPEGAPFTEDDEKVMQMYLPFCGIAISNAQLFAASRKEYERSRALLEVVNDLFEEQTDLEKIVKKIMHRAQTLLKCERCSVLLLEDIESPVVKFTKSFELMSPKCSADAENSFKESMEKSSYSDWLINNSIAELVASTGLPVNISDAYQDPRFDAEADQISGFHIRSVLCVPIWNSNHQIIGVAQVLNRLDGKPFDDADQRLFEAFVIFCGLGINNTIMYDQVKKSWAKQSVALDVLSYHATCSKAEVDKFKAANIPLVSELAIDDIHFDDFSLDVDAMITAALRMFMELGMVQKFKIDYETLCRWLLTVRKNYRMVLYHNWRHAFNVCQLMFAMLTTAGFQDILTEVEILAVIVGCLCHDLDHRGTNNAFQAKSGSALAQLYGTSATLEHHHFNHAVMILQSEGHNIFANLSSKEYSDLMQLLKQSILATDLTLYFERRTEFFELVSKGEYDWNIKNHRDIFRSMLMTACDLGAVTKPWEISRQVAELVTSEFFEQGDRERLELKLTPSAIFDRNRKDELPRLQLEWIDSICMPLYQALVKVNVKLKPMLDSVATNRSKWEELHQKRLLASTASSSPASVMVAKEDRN
pIC50: −log10 of the molar value.
Measured Endpoint: pIC50

Measured on Human PDE11A4 (Homo sapiens, UniProt Q9HCR9), `CCOc1cc(C)nc(N(CCOC)S(=O)(=O)c2ccc(NCc3c(F)cncc3F)nc2OC)n1` has a documented pIC50 of < 4.40

* * *

- Tested System: hERG (Homo sapiens, UniProt Q12809)
- Sequence (Q12809 whole entry): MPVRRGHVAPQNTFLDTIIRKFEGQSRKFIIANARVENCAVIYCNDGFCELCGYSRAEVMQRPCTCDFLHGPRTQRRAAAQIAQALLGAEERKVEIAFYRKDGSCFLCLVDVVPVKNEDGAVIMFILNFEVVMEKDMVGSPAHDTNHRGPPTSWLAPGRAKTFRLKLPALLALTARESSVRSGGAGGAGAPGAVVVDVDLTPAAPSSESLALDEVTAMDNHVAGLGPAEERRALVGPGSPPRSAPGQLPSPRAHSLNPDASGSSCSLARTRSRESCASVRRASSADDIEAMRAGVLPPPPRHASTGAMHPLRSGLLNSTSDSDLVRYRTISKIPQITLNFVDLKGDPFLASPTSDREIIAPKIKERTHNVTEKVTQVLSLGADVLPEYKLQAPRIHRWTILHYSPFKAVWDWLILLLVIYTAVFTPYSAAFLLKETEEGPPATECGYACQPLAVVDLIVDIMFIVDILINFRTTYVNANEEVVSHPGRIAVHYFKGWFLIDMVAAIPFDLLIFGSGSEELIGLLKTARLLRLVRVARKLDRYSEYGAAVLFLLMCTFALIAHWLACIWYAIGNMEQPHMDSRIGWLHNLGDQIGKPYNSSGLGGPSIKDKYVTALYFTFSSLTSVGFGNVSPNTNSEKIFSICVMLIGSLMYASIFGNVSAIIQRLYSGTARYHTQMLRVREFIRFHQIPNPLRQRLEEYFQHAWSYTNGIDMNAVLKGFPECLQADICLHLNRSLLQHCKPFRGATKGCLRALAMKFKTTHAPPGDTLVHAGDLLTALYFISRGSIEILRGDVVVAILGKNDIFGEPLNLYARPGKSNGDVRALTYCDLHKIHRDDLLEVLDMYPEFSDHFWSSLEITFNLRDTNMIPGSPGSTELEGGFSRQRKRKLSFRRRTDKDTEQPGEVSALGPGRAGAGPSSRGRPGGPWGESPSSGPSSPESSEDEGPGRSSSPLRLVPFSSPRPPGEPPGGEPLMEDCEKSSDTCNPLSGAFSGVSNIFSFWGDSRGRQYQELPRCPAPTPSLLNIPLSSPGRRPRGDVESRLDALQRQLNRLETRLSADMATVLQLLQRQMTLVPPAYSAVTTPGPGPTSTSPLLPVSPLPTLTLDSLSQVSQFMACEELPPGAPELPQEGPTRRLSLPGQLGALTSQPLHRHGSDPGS
pKi: −log10 of the molar value.
Measured Endpoint: pKi

Measured on hERG (Homo sapiens, UniProt Q12809), CCOc1cc(C)nc(N(CCOC)S(=O)(=O)c2ccc(NCc3c(F)cncc3F)nc2OC)n1 [Compound 1] has a documented pKi of < 4.10

* * *

- Tested System: human GPR61 N137A (Homo sapiens, UniProt Q9BZJ8, N137A)
- Construct: expressed in transfected cells; host or cells: CHO-K1, transient (Fugene6)
- Sequence (Q9BZJ8 whole entry N137A): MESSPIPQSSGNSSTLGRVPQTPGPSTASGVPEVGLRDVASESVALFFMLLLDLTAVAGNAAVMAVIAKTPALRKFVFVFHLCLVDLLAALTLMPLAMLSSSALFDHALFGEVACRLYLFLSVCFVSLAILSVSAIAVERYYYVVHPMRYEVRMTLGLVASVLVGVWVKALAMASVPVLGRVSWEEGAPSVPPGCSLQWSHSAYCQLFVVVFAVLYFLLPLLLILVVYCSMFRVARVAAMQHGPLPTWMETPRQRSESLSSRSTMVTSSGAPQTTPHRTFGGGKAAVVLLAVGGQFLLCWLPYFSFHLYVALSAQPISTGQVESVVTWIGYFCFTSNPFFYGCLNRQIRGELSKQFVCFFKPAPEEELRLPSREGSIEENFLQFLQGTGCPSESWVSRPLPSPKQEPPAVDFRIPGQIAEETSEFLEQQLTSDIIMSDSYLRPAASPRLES
- Assay Info: Functional cAMP assay (HTRF), transiently transfected CHO-K1 cells, GPR61 N137A mutant
- Assay type: cell-based
- Test Conditions: Fig. 3e table, HiBit-tagged; read-out: GPR61 cAMP IC50 (95% CI), N137A HiBit-tagged
Measured Endpoint: pIC50
By convention, pIC50 is the negative base-10 log of a molar concentration.

Measured on human GPR61 N137A (Homo sapiens, UniProt Q9BZJ8, N137A), `CCOc1cc(C)nc(N(CCOC)S(=O)(=O)c2ccc(NCc3c(F)cncc3F)nc2OC)n1` has a documented pIC50 of 5.48
